target: NRAS Q61K (Homo sapiens, UniProt P01111+P62937, Q61K); assay: Disruption of BRAF RBD interaction with Ras (FRET / MOA assay, with Cyclophilin A); format: biochemical; conditions: NRAS Q61K; read-out: NRAS Q61K FRET data IC50
Sequence (P01111 whole entry Q61K): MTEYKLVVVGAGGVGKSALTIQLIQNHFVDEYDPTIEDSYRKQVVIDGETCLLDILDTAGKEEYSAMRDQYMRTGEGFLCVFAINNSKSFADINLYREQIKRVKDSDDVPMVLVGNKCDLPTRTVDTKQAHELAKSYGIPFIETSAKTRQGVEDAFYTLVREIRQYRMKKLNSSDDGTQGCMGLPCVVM
Sequence (P62937 whole entry): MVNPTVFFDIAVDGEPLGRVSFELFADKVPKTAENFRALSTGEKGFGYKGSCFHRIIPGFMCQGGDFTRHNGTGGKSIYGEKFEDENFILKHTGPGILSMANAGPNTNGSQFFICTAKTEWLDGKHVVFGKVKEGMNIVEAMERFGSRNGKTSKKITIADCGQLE
pIC50: −log10 of the molar value.
test.readout: pIC50

What measured pIC50 goes with C=CC(=O)N1CC[C@H](C(=O)N(C)[C@@H](CC(F)(F)F)C(=O)N[C@H]2Cc3cccc(c3)-c3ccc4c(c3)c(c(-c3cccnc3[C@H](C)OC)n4CC)CC(C)(C)COC(=O)C3CCCN(N3)C2=O)C1 (stereo partly shown) ? 5.00 to 6.00

What measured pIC50 goes with CCn1c(-c2cccnc2[C@H](C)OC)c2c3cc(ccc31)-c1csc(n1)C[C@H](NC(=O)[C@H](C(C)C)N(C)C(=O)N1CCCOCC1)C(=O)N1CCC[C@H](N1)C(=O)OCC(C)(C)C2 (atropisomer, axis not shown) ? 7.00 to 8.00

What measured pIC50 goes with C=CC(=O)N1CCOC2(CCN(C(=O)N(C)[C@H](C(=O)N[C@H]3Cc4cccc(c4)-c4ccc5c(c4)c(c(-c4cccnc4[C@H](C)OC)n5CC(F)(F)F)CC(C)(C)COC(=O)C4CCCN(N4)C3=O)C(C)C)CC2)C1 (stereo partly shown) ? 6.00 to 7.00

What measured pIC50 goes with CCn1c(-c2cccnc2[C@H](C)OC)c2c3cc(ccc31)-c1csc(n1)C[C@H](NC(=O)[C@H](C(C)C)N(C)C(=O)N1CC[C@]3(CCN(C)C3=O)C1)C(=O)N1CCC[C@H](N1)C(=O)OCC(C)(C)C2 (single isomer, unassigned) ? 6.00 to 7.00

* * *

Parameter IC50: see the listing below.
molecular target: NRAS Q61K (Homo sapiens, UniProt P01111+P62937, Q61K); test: Ras-Raf disruption / FRET / MOA assay (BRAF RBD); type: biochemical

molecule	IC50
CCn1c(-c2cccnc2[C@H](C)OC)c2c3cc(ccc31)-c1cc(O)cc(c1)C[C@H](NC(=O)[C@H](C(C)C)N(C)C(=O)CN(C)C(=O)[C@@H]1CN1CC(=O)N(C)C)C(=O)N1CCC[C@H](N1)C(=O)OCC(C)(C)C2 (some centres unmarked)	100 to 1000 nM

Now consider a different molecule.
What measured IC50 goes with `CCn1c(-c2cccnc2[C@H](C)OC)c2c3cc(ccc31)-c1csc(n1)C[C@H](NC(=O)[C@H](C1CCCC1)N(C)C(=O)CN(C)C(=O)[C@@H]1N[C@@H]1C1CC1)C(=O)N1CCC[C@H](N1)C(=O)OCC(C)(C)C2` ? 1000 to 10000 nM

* * *

target: KRAS G12C (Homo sapiens, UniProt P01116+P62937, G12C); assay: Disruption of BRAF RBD interaction with Ras (FRET / MOA assay, with Cyclophilin A); format: biochemical; settings: KRAS G12C FRET data, IC50
Sequence (P01116 1-169 isoform P01116-2 G12C, one chain of several): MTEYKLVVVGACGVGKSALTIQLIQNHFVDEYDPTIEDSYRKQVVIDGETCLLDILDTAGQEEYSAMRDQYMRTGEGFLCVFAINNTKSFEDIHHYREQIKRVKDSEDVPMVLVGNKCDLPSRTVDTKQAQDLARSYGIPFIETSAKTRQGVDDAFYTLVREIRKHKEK
pIC50: −log10 of the molar value.
Parameter pIC50: see the listing below.

# example entries with known answers
compound	endpoint.value
CCn1c(-c2cnccc2COC)c2c3cc(ccc31)-c1cc(O)cc(c1)C[C@H](NC(=O)[C@H](C(C)C)N(C)S(C)(=O)=O)C(=O)N1CCC[C@H](N1)C(=O)OCC(C)(C)C2	5.00 to 6.00
CCn1c(-c2cccnc2[C@H](C)OC)c2c3cc(ccc31)-c1csc(n1)C[C@H](NC(=O)N1CCCC1)C(=O)N1CCC[C@H](N1)C(=O)OCC(C)(C)C2	6.00 to 7.00

What measured pIC50 goes with CCn1c(-c2cccnc2[C@H](C)OC)c2c3cc(ccc31)-c1csc(n1)C[C@H](NC(=O)[C@H](C(C)C)N(C)C(=O)N1CCC(N(C)C)CC1)C(=O)N1CCC[C@H](N1)C(=O)OCC(C)(C)C2 (atropisomer, axis not shown) ? 7.00 to 8.00

What measured pIC50 goes with CCn1c(-c2cccnc2[C@H](C)OC)c2c3cc(ccc31)-c1cc(O)cc(c1)C[C@H](NC(=O)[C@H](C(C)C)N(C)C(=O)[C@H]1C[C@@H](O)C1)C(=O)N1CCC[C@H](N1)C(=O)OCC(C)(C)C2 (atropisomer, axis not shown) ? 7.00 to 8.00
